target: Cruzipain (Trypanosoma cruzi, UniProt P25779); test: Inhibition of Trypanosoma cruzi cruzain preincubated for 5 mins before substrate addition
Sequence (P25779 whole entry): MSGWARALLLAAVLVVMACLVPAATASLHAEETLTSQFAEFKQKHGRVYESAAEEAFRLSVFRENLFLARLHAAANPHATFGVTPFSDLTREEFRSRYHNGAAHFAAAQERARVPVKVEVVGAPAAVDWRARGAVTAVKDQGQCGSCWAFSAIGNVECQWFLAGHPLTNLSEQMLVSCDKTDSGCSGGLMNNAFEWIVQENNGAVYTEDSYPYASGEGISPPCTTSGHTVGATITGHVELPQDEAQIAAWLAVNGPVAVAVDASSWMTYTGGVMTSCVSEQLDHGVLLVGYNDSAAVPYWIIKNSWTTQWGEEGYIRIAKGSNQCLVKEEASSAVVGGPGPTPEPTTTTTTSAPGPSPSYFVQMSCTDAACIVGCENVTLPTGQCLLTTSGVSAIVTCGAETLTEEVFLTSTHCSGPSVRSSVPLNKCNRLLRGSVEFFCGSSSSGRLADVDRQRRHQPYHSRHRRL
reported endpoint: log10(IC50) (log10 of the value in µM)

input smiles | number
Nc1ccccc1-c1nnc(C(=O)Nc2nnc(-c3ccc(Cl)cc3)s2)o1 | 0.60
Nc1ccccc1-c1nnc(C(=O)NCc2ccnc(N3CCOCC3)c2)o1 | 1.92
Nc1ccccc1-c1nnc(C(=O)Nc2cccc(N3CCCC3)c2)o1 | 0.85
COc1ccc(-c2cc(NC(=O)c3nnc(-c4ccccc4N)o3)n[nH]2)cc1 | -0.70
Nc1ncccc1C(=O)OCC(=O)NC1CCCCCC1 | 1.94
Nc1ccccc1-c1nnc(C(=O)NCc2c(N)cccc2F)o1 | 1.72
Nc1ccccc1-c1nnc(C(=O)NCc2cccc3nsnc23)o1 | 0.78
Nc1ccccc1-c1nnc(C(=O)NCc2ccnc(N3CCSCC3)c2)o1 | 1.36

###

target: Cruzipain (Trypanosoma cruzi, UniProt P25779); assay: Inhibition of Trypanosoma cruzi cruzain preincubated for 5 mins before substrate addition
API: label(entry) gives Fulfilled if the entry's IC50 is strictly smaller than 40 µM; on equality or larger values it gives Not fulfilled.

input smiles | group
Cn1ccc(NC(=O)c2nnc(-c3ccccc3N)o2)n1 | Not fulfilled
Nc1ccccc1-c1nnc(C(=O)NCCCn2ccnc2)o1 | Not fulfilled
Cc1ccc(CNC(=O)c2nnc(-c3ccccc3N)o2)o1 | Fulfilled
Nc1ncccc1C(=O)OCC(=O)Nc1cc(Cl)ccc1Cl | Not fulfilled
Cc1nn(-c2ccccc2)nc1CNC(=O)c1nnc(-c2ccccc2N)o1 | Fulfilled
CC(C)(C)c1cc(NC(=O)c2nnc(-c3ccccc3N)o2)[nH]n1 | Fulfilled
CCN(CC)c1ccc(NC(=O)c2nnc(-c3ccccc3N)o2)cc1 | Fulfilled
Nc1ccccc1-c1nnc(C(=O)N[C@H]2CCCCNC2=O)o1 | Not fulfilled
Nc1ccccc1-c1nnc(C(=O)NC2Cc3ccccc3C2)o1 | Fulfilled
Nc1ccccc1-c1nnc(C(=O)NCc2cccc(-n3cccn3)c2)o1 | Fulfilled
Nc1ccccc1C(=O)OCC(=O)Nc1cc(Cl)ccc1Cl | Not fulfilled
Nc1ccccc1-c1nnc(C(=O)NCc2ccccc2N2CCOCC2)o1 | Fulfilled
Nc1ccccc1-c1nnc(C(=O)Nc2ccc(N3CCOCC3)cc2)o1 | Not fulfilled
